Data credit: the supplement of paper PMC3545927

Molecular target: furin, P09958;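 further: purified furin at 1:10 enzyme:substrate in 50 mM HEPES pH 7.5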
Sequence (P09958 whole entry): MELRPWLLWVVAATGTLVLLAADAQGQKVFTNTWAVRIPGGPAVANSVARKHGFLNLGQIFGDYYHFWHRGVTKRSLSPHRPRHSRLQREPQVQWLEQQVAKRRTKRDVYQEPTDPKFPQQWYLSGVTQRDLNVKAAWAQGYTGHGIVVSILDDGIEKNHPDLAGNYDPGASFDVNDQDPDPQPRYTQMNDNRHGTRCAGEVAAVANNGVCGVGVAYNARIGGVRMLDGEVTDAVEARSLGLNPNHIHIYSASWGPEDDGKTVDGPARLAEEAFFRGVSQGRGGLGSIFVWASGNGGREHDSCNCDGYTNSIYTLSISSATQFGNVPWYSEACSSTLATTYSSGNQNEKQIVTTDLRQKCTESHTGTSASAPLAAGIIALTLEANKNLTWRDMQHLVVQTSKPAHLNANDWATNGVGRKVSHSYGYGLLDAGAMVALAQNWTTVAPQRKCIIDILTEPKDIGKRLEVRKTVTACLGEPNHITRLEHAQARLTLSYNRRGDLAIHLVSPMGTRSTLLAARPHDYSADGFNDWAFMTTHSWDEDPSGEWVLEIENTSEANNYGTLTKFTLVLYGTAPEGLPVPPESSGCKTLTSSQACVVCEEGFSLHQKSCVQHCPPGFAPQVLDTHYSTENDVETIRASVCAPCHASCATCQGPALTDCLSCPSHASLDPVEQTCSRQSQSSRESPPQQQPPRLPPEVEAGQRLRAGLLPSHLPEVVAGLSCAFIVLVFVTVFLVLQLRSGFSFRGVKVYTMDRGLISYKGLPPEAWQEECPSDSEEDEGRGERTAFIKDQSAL
Test: furin cleavage Z-score vs untreated control; higher = more cleavage, active = 3.5 or more, inactive = 1 or less, 8 variable residues between constant flanks
Conditions: 30 min
Some of the results follow. The true hit rate is not given.
quantityName: furin cleavage Z-score
Write no unit; give the number alone.

Record excerpt, results attached:
>>> df
                  inputsequence            quantityname  quantitativereadout
0  CAIVARNHRDAGNASASA [FS-1537]  furin cleavage Z-score                 2.88
1     CAVVCNSMSYAGNASASA [HC98]  furin cleavage Z-score               -0.488

Could you now consider this next sequence?
Kindly note the recorded furin cleavage Z-score for CARRPRFKDIAGNASASA [FS-3058] , which is 0.618
